Kindly state pIC50 for each of the entries shown.
# tested-on: Human Cot (Homo sapiens (Human), UniProt P41279)
# Sequence (P41279 30-397): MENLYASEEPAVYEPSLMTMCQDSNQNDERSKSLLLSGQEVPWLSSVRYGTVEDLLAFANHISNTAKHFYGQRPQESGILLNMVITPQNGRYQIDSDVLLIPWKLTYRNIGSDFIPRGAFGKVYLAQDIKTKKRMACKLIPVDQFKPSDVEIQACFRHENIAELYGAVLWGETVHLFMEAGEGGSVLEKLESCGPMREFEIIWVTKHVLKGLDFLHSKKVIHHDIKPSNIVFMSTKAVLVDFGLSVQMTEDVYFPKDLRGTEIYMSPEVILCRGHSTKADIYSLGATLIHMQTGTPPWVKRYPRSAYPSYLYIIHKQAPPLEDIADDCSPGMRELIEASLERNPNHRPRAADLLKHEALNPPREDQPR
# experiment-notes: High Throughput Cot Biochemical Assay
# assay-conditions: IC50 HTRF, Cot HTRF (TR-FRET) biochemical assay
One number for each entry, as −log10 of the molar value.

CC(C)(C)CNc1c(C#N)cnc2c(Cl)cc(N[C@H](c3cn(C4(C(F)F)CC4)nn3)c3cccc4c(=O)n(CC(F)F)ccc34)cc12 [Example 743] : 8.30

For the 2 molecules below, give their pIC50 values.
1. CC(C)(C)ONc1c(C#N)cnc2c(C#N)cc(N[C@H](c3cn(C4CC4)nn3)c3cccc4ncsc34)cc12 [Example 456]
2. Cn1ncc2c([C@H](Nc3cc(C#N)c4ncc(C#N)c(NCC(C)(C)C)c4c3)c3cn(C4(C(F)(F)F)CC4)nn3)cccc21 [Example 557]

[7.29, 8.30]

* * *

# Tested on: TNFα
# experiment-notes: Cot Monocyte TNFα Cell Based Assay
# assay-conditions: Homo sapiens, Monocyte, read-out: EC50 TNF, LPS-stimulated human monocytes, TNFα
property-name: pEC50
Answers are plain numbers, as −log10 of the molar value.

Here's what some known entries look like.
[2H][C@@](Nc1cc(Cl)c2ncc(C#N)c(NCC(C)(C)C)c2c1)(c1cn(C2CC2)nn1)c1cccnc1N(C)C [Example 650] : 6.00
Cc1nc(F)ccc1[C@H](Nc1cc(Cl)c2ncc(C#N)c(NCC(C)(C)C)c2c1)c1cn(C2CC23CC3)nn1 (stereo partly shown) [Example 766] : 7.52
Cc1nc(F)ccc1[C@H](Nc1cc(C#N)c2ncc(C#N)c(NCC(C)(C)C#N)c2c1)c1cn(C2(C(F)(F)F)CC2)nn1 [Example 615] : 6.23

Continue with the next compound.
Tell me the measured pEC50 of Cn1cc2c([C@H](Nc3cc(Cl)c4ncc(C#N)c(NCC(C)(C)C)c4c3)c3cn(C4(C(F)F)CC4)nn3)cccc2n1 [Example 497] , please.
6.42

* * *

# Tested on: TNFα
# experiment-notes: Cot Monocyte TNFα Cell Based Assay
# assay-conditions: Homo sapiens, Monocyte, read-out: EC50 TNF, LPS-stimulated human monocytes, TNFα TR-FRET
property-name: pEC50
Answers are plain numbers, as −log10 of the molar value.

CC(C)(C)CNc1c(C#N)cnc2c(Cl)cc(N[C@H](c3cn(C(CF)CF)nn3)c3cccc4ncccc34)cc12 [Example 804] : 6.86
CC(C)(C)CNc1c(C#N)cnc2c(C#N)cc(N[C@@H](c3ccc4cccnc4c3)c3cn(C4(C(F)F)CC4)nn3)cc12 [Example 818] : 6.75
Cc1nc(F)ccc1[C@H](Nc1cc(C#N)c2ncc(C#N)c(NCC(C)(C)C)c2c1)c1cn(C(C)(C)C2CC2)nn1 [Example 850] : 7.19

Go through the items and report each one's pEC50.
1. COc1ccc(C(Nc2cc(Cl)c3ncc(C#N)c(NCC(C)(C)C)c3c2)c2nnn(C)c2OC)c(C)n1 (stereo not drawn) [Example 970]
2. Cc1nc(F)ccc1[C@H](Nc1cc(Cl)c2ncc(C#N)c(NCC(C)(C)C)c2c1)c1nnn(C2(C(F)F)CC2)c1I [Example 945]
3. Cn1ccc2c([C@H](Nc3cc(C#N)c4ncc(C#N)c(NCC(C)(C)C(F)(F)F)c4c3)c3cn(C4(C)CC4)nn3)cccc2c1=O [Example 884]
4. Cc1nc(F)ccc1[C@H](Nc1cc(Cl)c2ncc(C#N)c(NCC(C)(C)C)c2c1)c1nnn(C2(C(F)F)CC2)c1C#N [Example 974]
5. CC(C)(C)CNc1c(C#N)cnc2c(C#N)cc(N[C@H](c3cn([C@@H]4C[C@@H]4F)nn3)c3cccc4ncccc34)cc12 [Example 899]
6. CC(C)(C)CNc1c(C#N)cnc2c(Cl)cc(N[C@H](c3cn(C4(C(F)(F)F)CC4)nn3)c3cccc4[nH]c(C(F)(F)F)nc34)cc12 [Example 972]

6.14
6.85
7.72
7.22
7.54
6.00

Provide reported pEC50 for each item, in the same order as listed.
1. Cc1nc(F)ccc1[C@H](Nc1cc(Cl)c2ncc(C#N)c(Nc3cnc(F)c(F)c3)c2c1)c1nnn(C2(C(F)F)CC2)c1F [Example 953]
2. COc1ccc2c([C@H](Nc3cc(Cl)c4ncc(C#N)c(NCC(C)(C)C)c4c3)c3cn(C4(C(F)(F)F)CC4)nn3)cccc2n1 [Example 930]
3. Cc1ccc([C@H](Nc2cc(C#N)c3ncc(C#N)c(NCC(C)(C)C)c3c2)c2cn(C3(C(F)(F)F)CC3)nn2)cn1 [Example 828]
4. CC(C)(CNc1c(C#N)cnc2c(Cl)cc(N[C@H](c3cn(C4(C(F)F)CC4)nn3)c3cccc4ncccc34)cc12)C(F)(F)F [Example 940]
5. Cc1nc(F)ccc1[C@H](Nc1cc(C#N)c2ncc(C#N)c(NCC3(C(F)(F)F)CCC3)c2c1)c1cn(C2(C(F)F)CC2)nn1 [Example 831]
6. COc1ccc([C@H](Nc2cc(Cl)c3ncc(C#N)c(NCC(C)(C)C)c3c2)c2nnn(C3(C(F)F)CC3)c2OC)c(C)n1 [Example 966]

1: 6.45; 2: 6.30; 3: 6.60; 4: 7.07; 5: 6.69; 6: 6.72

List pEC50 for every entry below, keeping the order given.
1. Cc1nc(F)ccc1[C@H](Nc1cc(C#N)c2ncc(C#N)c(NCC(C)(C)C)c2c1)c1cn(C2(C(C)C)CC2)nn1 [Example 851]
2. Cc1nc(F)ccc1[C@H](Nc1cc(Cl)c2ncc(C#N)c(NCC(C)(C)C(F)(F)F)c2c1)c1nnn([C@@H](C)CF)c1F [Example 955]

1. 7.68
2. 7.30

List pEC50 for every entry below, keeping the order given.
1. COc1ccc2c([C@H](Nc3cc(C#N)c4ncc(C#N)c(NCC(C)(C)C)c4c3)c3cn(C4(C(F)(F)F)CC4)nn3)cccc2n1 [Example 811]
2. CC1(n2cc([C@@H](Nc3cc(C#N)c4ncc(C#N)c(NCC(C)(C)C(F)(F)F)c4c3)c3ccc(F)c4ncccc34)nn2)CC1 [Example 813]

1: 6.48; 2: 7.62

Please go through the list and note pEC50 for each molecule.
1. Cc1nc(F)ccc1[C@H](Nc1cc(C#N)c2ncc(C#N)c(NCC(C)(C)C)c2c1)c1cn(CC2(C)CC2)nn1 [Example 866]
2. CC(C)(C)CNc1c(C#N)cnc2c(C#N)cc(N[C@H](c3cn(C4(C(F)F)CC4)nn3)c3cccc4c(=O)n(CC(F)F)ccc34)cc12 [Example 870]
3. COc1c([C@@H](Nc2cc(C#N)c3ncc(C#N)c(NCC(C)(C)C)c3c2)c2ccc(F)nc2C)nnn1C1(C(F)F)CC1 [Example 964]
4. Cc1nc(F)ccc1[C@@H](c1cn(C2(C(F)(F)F)CC2)nn1)N(C)c1cc(Cl)c2ncc(C#N)c(NCC(C)(C)C)c2c1 [Example 979]
5. Cc1nc(F)ccc1[C@H](Nc1cc(C#N)c2ncc(C#N)c(NCC(C)(C)C)c2c1)c1cn(C2(C)COC2)nn1 [Example 852]

[7.74, 6.77, 6.98, 6.00, 7.24]

I have 3 molecules here; please give me pEC50 for each one.
1. CC(C)(CNc1c(C#N)cnc2c(C#N)cc(N[C@H](c3cn(C4(C5CC5)CC4)nn3)c3cccc4ncccc34)cc12)C(F)(F)F [Example 896]
2. Cc1nc(F)ccc1[C@H](Nc1cc(C#N)c2ncc(C#N)c(NCC(C)(C)C(F)(F)F)c2c1)c1cn(C2(C)CC2)nn1 [Example 846]
3. COc1ccc([C@H](Nc2cc(Cl)c3ncc(C#N)c(NCC(C)(C)C)c3c2)c2cn(C3(C(F)(F)F)CC3)nn2)cn1 [Example 805]

1. 7.52
2. 7.77
3. 6.11
